Biological target: Cytochrome P450 3A4 (Homo sapiens)
Experiment: qHTS Assay for Activators of Cytochrome P450 3A4 (AID 885); further: nearly all actives have a fitted effect of over 65% in size
Settings: recombinant CYP3A4, Luciferin-PPXE luminescence, 60 min; series mostly up to 57.1 µM
Activity calls are given as the source filed them. The call rests on the fitted dose curve; in most records, active means well fitted activation curve with a large enough effect; inconclusive means small, poorly fitted or top-dose-only effect; inactive means no such curve, though single readings can be large or run the other way.
Use one of these outcomes when replying: true (1) = active, false (0) = inactive

Recorded results for 2 compounds are shown here.
Query: // outcome(item) with item = "COc1ccccc1CN1CC[C@@]2(CCCN(C(=O)c3ccco3)C2)C1"
Reply: false (0)

Query: Could you kindly confirm the outcome this assay logged for "Cc1cccc(CNc2cc(-c3ccc(C(=O)N(C)C)cc3)ncn2)c1" ?
Reply: false (0)

***
Query: # outcome recorded in this test, key = "O=C(c1cnccn1)N1CCC2(CC1)CCN(c1ncccn1)CC2"
Reply: true (1)

Query: Called result for "COc1ccc2[nH]cc(CCNc3ccnc(-c4ccc5c(c4)OCO5)n3)c2c1"
Reply: false (0)

// data source = PubChem BioAssay (NCATS)
